Data origin: the supplement of paper PMC10126150

Tested on: ATP;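 further: ATP exposure 15 min at 22 °C before imaging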
Experiment: switch fluorescence ratio, 500 uM ATP over buffer (Cy3 cluster intensity, sum of 5 cycles each) (fold (ratio)); higher = stronger signal-on switching upon ATP binding; sequences stand for … in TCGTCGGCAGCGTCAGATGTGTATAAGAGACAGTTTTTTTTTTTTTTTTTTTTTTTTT…TC
Settings: aptamer strand: ATP DNA aptamer (quencher-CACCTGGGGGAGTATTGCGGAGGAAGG + anchor), 100 nM annealed; ATP concentration: 500 uM
Documented switch fluorescence ratio across a set of sequences
attribute measured: switch fluorescence ratio

{"columns": ["sequence record", "test system", "attribute measured", "recorded measurement"],
 "data": [
  ["GTTGAGGGTC", "ATP", "switch fluorescence ratio", 0.993],
  ["TAGTAAAGAT", "ATP", "switch fluorescence ratio", 1],
  ["GTTCAAAAGC", "ATP", "switch fluorescence ratio", 0.98],
  ["TTTTTACCTT", "ATP", "switch fluorescence ratio", 1.07],
  ["GGATGGGGGA", "ATP", "switch fluorescence ratio", 1.02],
  ["GGGGACGGGC", "ATP", "switch fluorescence ratio", 1.04],
  ["AGTAGAATTG", "ATP", "switch fluorescence ratio", 0.966],
  ["AAAGGGTGAG", "ATP", "switch fluorescence ratio", 0.973],
  ["GGGGATACGC", "ATP", "switch fluorescence ratio", 1.03],
  ["GCCTTCAATA", "ATP", "switch fluorescence ratio", 1.09],
  ["TGAAGGCCGG", "ATP", "switch fluorescence ratio", 0.995],
  ["GGGATAATTA", "ATP", "switch fluorescence ratio", 1.01],
  ["TATAGTCATT", "ATP", "switch fluorescence ratio", 1.02],
  ["CATAACTATT", "ATP", "switch fluorescence ratio", 0.989],
  ["AGTGAGAGGA", "ATP", "switch fluorescence ratio", 0.98],
  ["AGGGCTTTTG", "ATP", "switch fluorescence ratio", 1],
  ["GAAAAAGTCG", "ATP", "switch fluorescence ratio", 0.997],
  ["GATCGCGTGG", "ATP", "switch fluorescence ratio", 0.968],
  ["GGGTTTTCCG", "ATP", "switch fluorescence ratio", 1.02],
  ["GGTTTCCCT", "ATP", "switch fluorescence ratio", 0.973],
  ["GGGGTGCACG", "ATP", "switch fluorescence ratio", 0.988]
]}

====

Test system: ATP;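 further: ATP exposure 15 min at 22 °C before imaging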
Assay: switch fluorescence ratio, 500 uM ATP over buffer (Cy3 cluster intensity, sum of 5 cycles each) (fold (ratio)); higher = stronger signal-on switching upon ATP binding; sequences stand for … in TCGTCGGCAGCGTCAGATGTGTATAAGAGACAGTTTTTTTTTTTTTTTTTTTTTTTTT…TC
Conditions: aptamer strand: ATP DNA aptamer (quencher-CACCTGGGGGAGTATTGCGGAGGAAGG + anchor), 100 nM annealed; ATP concentration: 500 uM
switch fluorescence ratio by entry:
attribute measured: switch fluorescence ratio

{"columns": ["sequence record", "attribute measured", "recorded measurement"],
 "data": [
  ["TTTTTGTAAT", "switch fluorescence ratio", 1.04],
  ["TTTATATGGT", "switch fluorescence ratio", 0.988],
  ["ACAGGCTGGT", "switch fluorescence ratio", 1.02],
  ["ATGTTCTCCG", "switch fluorescence ratio", 1.14],
  ["TGGTTTAGTG", "switch fluorescence ratio", 0.976],
  ["TTGTTCCGAT", "switch fluorescence ratio", 1.02],
  ["TTGAACGTGT", "switch fluorescence ratio", 0.994],
  ["ATAAAAACAT", "switch fluorescence ratio", 1],
  ["CGAGGATTTC", "switch fluorescence ratio", 0.988],
  ["TTGAGAGTCT", "switch fluorescence ratio", 1.01],
  ["CGTCATCCAT", "switch fluorescence ratio", 0.988],
  ["TTAGGATAGT", "switch fluorescence ratio", 0.998],
  ["CATGTGCTTC", "switch fluorescence ratio", 1.03],
  ["GAAAAGCATG", "switch fluorescence ratio", 0.988],
  ["TTCGGAGGGT", "switch fluorescence ratio", 0.99],
  ["TTTATTGGGC", "switch fluorescence ratio", 0.988],
  ["ATAAAGCAGT", "switch fluorescence ratio", 1.02],
  ["AGTTCGTTA", "switch fluorescence ratio", 0.986],
  ["CGTATTAGTA", "switch fluorescence ratio", 0.993],
  ["GGGTGCTGGG", "switch fluorescence ratio", 0.999],
  ["AGTATTCTG", "switch fluorescence ratio", 0.961],
  ["TACCGGCTCA", "switch fluorescence ratio", 0.999],
  ["AGGAGTATGA", "switch fluorescence ratio", 1.03],
  ["CACAACGGTG", "switch fluorescence ratio", 1.04],
  ["TAATCGAAGC", "switch fluorescence ratio", 1],
  ["CGCTTTAGGT", "switch fluorescence ratio", 1.02],
  ["CATTCGGGGC", "switch fluorescence ratio", 1.11],
  ["TTGTTAGGTT", "switch fluorescence ratio", 1.06],
  ["TATAATCATT", "switch fluorescence ratio", 0.985],
  ["GGAGCCTGGT", "switch fluorescence ratio", 1.01],
  ["TGAGCTAGGT", "switch fluorescence ratio", 1],
  ["AGCTATGCGC", "switch fluorescence ratio", 0.963],
  ["GCCAGACGTG", "switch fluorescence ratio", 0.995],
  ["TATTTGGGTG", "switch fluorescence ratio", 1.05],
  ["TGTTTTATCT", "switch fluorescence ratio", 0.986],
  ["AGTACCGGGT", "switch fluorescence ratio", 1.04],
  ["TAAACTTG", "switch fluorescence ratio", 1.04],
  ["CACTTTTTTT", "switch fluorescence ratio", 1.01],
  ["TGGGAGAAGG", "switch fluorescence ratio", 1.02],
  ["GAGGCAGTTG", "switch fluorescence ratio", 0.993],
  ["TTTTCCACGG", "switch fluorescence ratio", 1.21],
  ["AAAGGTTTAC", "switch fluorescence ratio", 0.978],
  ["CGATGGAATC", "switch fluorescence ratio", 1.69]
]}
